Molecular target: Luciferin 4-monooxygenase (Photinus pyralis) (UniProt P08659)
Sequence (P08659 whole entry, looked up): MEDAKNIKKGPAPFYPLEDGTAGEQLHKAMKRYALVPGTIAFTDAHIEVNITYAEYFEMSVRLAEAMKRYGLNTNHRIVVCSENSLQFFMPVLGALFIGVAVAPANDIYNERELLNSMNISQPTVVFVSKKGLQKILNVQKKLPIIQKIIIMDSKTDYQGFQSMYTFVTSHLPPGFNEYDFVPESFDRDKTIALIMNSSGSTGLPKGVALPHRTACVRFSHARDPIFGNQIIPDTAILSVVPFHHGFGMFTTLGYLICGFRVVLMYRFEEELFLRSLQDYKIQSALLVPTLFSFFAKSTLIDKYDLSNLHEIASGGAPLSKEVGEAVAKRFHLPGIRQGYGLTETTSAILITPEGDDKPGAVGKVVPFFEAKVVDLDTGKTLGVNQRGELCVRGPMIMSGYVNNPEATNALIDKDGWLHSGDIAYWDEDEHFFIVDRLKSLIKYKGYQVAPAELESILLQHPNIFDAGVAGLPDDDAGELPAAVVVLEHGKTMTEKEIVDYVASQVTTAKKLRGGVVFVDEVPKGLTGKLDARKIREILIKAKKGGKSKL
Assay: FLuc inhibitory activity for the follow-up compounds in a biochemical assay with a commercial detection reagent - BriteliteTM Plus (PerkinElmer)
Settings: purified FLuc, Britelite Plus luminescence; series mostly up to 38.3 µM
Results filed as inconclusive are left out. Activity calls are given as the source filed them. Calls follow the shape of the dose curve; as a rule, active = well fitted inhibition curve with a large enough effect; inconclusive = small, poorly fitted or top-dose-only effect; inactive = no such curve, though single readings can be large or run the other way.
parameter: Potency

> print(dat)
                                    compound      observed.value
 1           COc1ccc2nc(NC(=O)c3cnccn3)sc2c1       2 µM (active)
 2  O=C(Nc1ccccc1C(=O)O)c1cccc(NC(=O)c2ccc(Br)o2)c1            inactive
 3  CCOc1ccc2nc(NC(=O)c3cc([N+](=O)[O-])ccc3N3CCOCC3)sc2c1            inactive
 4          CCOc1ccc2nc(NC(=O)c3ccoc3C)sc2c1       2 µM (active)
 5  CN(C)S(=O)(=O)c1ccc(C(=O)Nc2ccccc2C(=O)O)cc1            inactive
 6  Cc1ccc(C(=O)Nc2cccc(C(=O)O)c2)cc1S(=O)(=O)N1CCOCC1    11.3 µM (active)
 7         CCOc1ccc(C(=O)Nc2ccccc2C(=O)O)cc1    3.56 µM (active)
 8  O=C(O)c1ccc(NC(=O)c2ccccc2NC(=O)c2ccccc2Cl)cc1            inactive
 9  COc1ccc2nc(NC(=O)C3CCN(S(=O)(=O)c4cccs4)CC3)sc2c1            inactive
10     O=C(O)c1ccccc1NC(=O)c1ccccc1Nc1ccccc1            inactive
11  COc1ccc2nc(NC(=O)c3ccc([N+](=O)[O-])o3)sc2c1    3.56 µM (active)
12          CCOc1ccc2nc(NC(=O)Cc3cccs3)sc2c1            inactive
13  O=C(O)c1cccc(NC(=O)c2cccc(NC(=O)C3CCCO3)c2)c1 (stereo not given)    11.3 µM (active)
14    CC(C)(C)C(=O)Nc1ccc(-c2nc3ccccc3s2)cc1  0.0179 µM (active)
15          CCOc1ccc2nc(NC(=O)c3ccccc3)sc2c1    2.52 µM (active)
16  O=C(O)c1cccc(NC(=O)c2cccc(S(=O)(=O)Nc3cccc(F)c3)c2)c1            inactive
17  COc1ccc(CC(=O)Nc2cccc(C(=O)Nc3ccccc3C(=O)O)c2)cc1OC            inactive
18  O=C(O)c1ccc(NC(=O)c2cccc(C(=O)Nc3ccc(C(=O)O)cc3)c2)cc1            inactive
19   O=C(Nc1ccc(-c2nc3ccccc3s2)cc1)C1=COCCO1     0.4 µM (active)
20  O=C(O)c1cccc(NC(=O)c2ccc(COc3ccc(Cl)cc3)cc2)c1            inactive
21  O=C(O)c1cccc(NC(=O)c2ccc(Cl)c(S(=O)(=O)N3CCCCCC3)c2)c1    3.18 µM (active)
22  Cc1ccc(S(=O)(=O)N2CCOCC2)cc1C(=O)Nc1ccccc1C(=O)O            inactive
23    Cn1c(N/N=C/c2cc3ccccc3nc2Cl)nc2ccccc21    12.6 µM (active)
24  O=C(Cc1ccc(Cl)cc1)Nc1cccc(C(=O)Nc2ccccc2C(=O)O)c1            inactive
25  COc1ccc2nc(NC(=O)c3ccc(NS(=O)(=O)c4cccs4)cc3)sc2c1            inactive
26     CCOc1ccc(C(=O)Nc2cccc(C(=O)O)c2)cc1Cl    7.11 µM (active)
27      CC(C)(C)NC(=O)c1ccccc1-c1nc2ccccc2s1            inactive
28      COc1ccc(Br)cc1C(=O)Nc1ccc(C(=O)O)cc1            inactive
29  COc1ccccc1C(=O)Nc1ccc(C(=O)Nc2ccccc2C(=O)O)cc1            inactive
30  Cc1ccc(C(=O)Nc2cccc(C(=O)O)c2)cc1S(=O)(=O)N1CCCC1    2.25 µM (active)
31  O=C(Nc1ccccc1C(=O)O)c1ccc(NC(=O)C2CC2)cc1    4.49 µM (active)
32            COc1ccc2nc(NC(=O)c3cccs3)sc2c1            inactive
33  O=C(Nc1ccccc1C(=O)O)c1cccc(NC(=O)c2ccccc2Cl)c1            inactive
34       CCc1noc(C)c1C(=O)Nc1nc2ccc(OC)cc2s1  0.0504 µM (active)
35              Nc1ccc(-c2nc3cc(N)ccc3s2)cc1       4 µM (active)
36  Cc1ccccc1C(=O)Nc1cccc(C(=O)Nc2ccccc2C(=O)O)c1            inactive
37                 Nc1ccc2nc(-c3ccccc3)sc2c1   0.634 µM (active)
38              Nc1ccc2nc(-c3ccc(O)cc3)sc2c1    1.13 µM (active)
39  O=C(Nc1ccccc1C(=O)Nc1ccccc1C(=O)O)c1ccccc1            inactive
40  COc1ccc(C(=O)Nc2ccccc2C(=O)Nc2ccccc2C(=O)O)cc1    11.3 µM (active)
41   O=C(Nc1ccc(Cl)cc1-c1nc2ccccc2s1)c1ccco1            inactive
42  COc1ccc(C(=O)Nc2ccccc2C(=O)Nc2ccc(C(=O)O)cc2)cc1    14.2 µM (active)
43      Cc1c(NS(C)(=O)=O)cccc1-c1nc2ccccc2s1            inactive
44  O=C(O)c1cccc(NC(=O)c2cccc(S(=O)(=O)N3CCc4ccccc4C3)c2)c1            inactive
45  COc1ccc2nc(NC(=O)c3cccc(S(=O)(=O)N4CCOCC4)c3)sc2c1            inactive
